Target: T1, human THAP1 (THanatos-Associated-Protein-1), full length (human, UniProt Q9NVV9 1-213)
T1 construct: these tags are not written into the chain; also called hTHAP1; THAP1 wild type
T1 sequence: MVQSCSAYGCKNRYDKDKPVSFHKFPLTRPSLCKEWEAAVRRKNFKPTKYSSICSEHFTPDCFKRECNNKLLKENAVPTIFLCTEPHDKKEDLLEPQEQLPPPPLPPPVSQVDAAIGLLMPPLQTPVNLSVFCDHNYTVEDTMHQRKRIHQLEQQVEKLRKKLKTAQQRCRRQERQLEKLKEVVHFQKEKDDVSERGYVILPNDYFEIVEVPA
Experiment: yeast two-hybrid
Measurement kind: binding result

Solved cases (5 shown):
THAP1-C1 deletion mutant (amino acids 90-213) (other, Gal4 fusion, in vitro translation product or GFP fusion according to assay; also called THAP1-CL; THAP1ΔTHAP) KEDLLEPQEQLPPPPLPPPVSQVDAAIGLLMPPLQTPVNLSVFCDHNYTVEDTMHQRKRIHQLEQQVEKLRKKLKTAQQRCRRQERQLEKLKEVVHFQKEKDDVSERGYVILPNDYFEIVEVPA	binds
THAP1-N3 deletion mutant (amino acids 1-192) (other, Gal4 fusion, in vitro translation product or GFP fusion according to assay) MVQSCSAYGCKNRYDKDKPVSFHKFPLTRPSLCKEWEAAVRRKNFKPTKYSSICSEHFTPDCFKRECNNKLLKENAVPTIFLCTEPHDKKEDLLEPQEQLPPPPLPPPVSQVDAAIGLLMPPLQTPVNLSVFCDHNYTVEDTMHQRKRIHQLEQQVEKLRKKLKTAQQRCRRQERQLEKLKEVVHFQKEKDD	binds
THAP1-N1 deletion mutant (amino acids 1-90) (other, Gal4 fusion, in vitro translation product or GFP fusion according to assay; also called zinc finger domain of THAP1) MVQSCSAYGCKNRYDKDKPVSFHKFPLTRPSLCKEWEAAVRRKNFKPTKYSSICSEHFTPDCFKRECNNKLLKENAVPTIFLCTEPHDKK	no binding
THAP1-C3 deletion mutant (amino acids 143-213) (other, Gal4 fusion, in vitro translation product or GFP fusion according to assay) MHQRKRIHQLEQQVEKLRKKLKTAQQRCRRQERQLEKLKEVVHFQKEKDDVSERGYVILPNDYFEIVEVPA	binds
human cytokine interferon gamma (amino acids 21-166) (ligand, Residues are given against GenBank NM-000619; Negative control; also called IFNγ; IFN) CYCQDPYVKEAENLKKYFNAGHSDVADNGTLFLGILKNWKEESDRKIMQSQIVSFYFKLFKNFKDDQSIQKSVETIKEDMNVKFFNSNKKKRDDFEKLTNYSVTDLNVQRKAIHELIQVMAELSPAAKTGKRKRSQMLFQGRRASQ	no binding

Please examine the following record next.
Req: Value lookup for binding result; key = THAP1-C2 deletion mutant (amino acids 120-213) (other, Gal4 fusion, in vitro translation product or GFP fusion according to assay) MPPLQTPVNLSVFCDHNYTVEDTMHQRKRIHQLEQQVEKLRKKLKTAQQRCRRQERQLEKLKEVVHFQKEKDDVSERGYVILPNDYFEIVEVPA
Resp: binds
